Reference for the values: ChEMBL document CHEMBL5143565

target: Toll-like receptor 7 (Homo sapiens, UniProt Q9NYK1); test: Agonist activity at TLR7 in human HEK-SEAP reporter cell assessed as NF-kappaB activation
Sequence (Q9NYK1 whole entry): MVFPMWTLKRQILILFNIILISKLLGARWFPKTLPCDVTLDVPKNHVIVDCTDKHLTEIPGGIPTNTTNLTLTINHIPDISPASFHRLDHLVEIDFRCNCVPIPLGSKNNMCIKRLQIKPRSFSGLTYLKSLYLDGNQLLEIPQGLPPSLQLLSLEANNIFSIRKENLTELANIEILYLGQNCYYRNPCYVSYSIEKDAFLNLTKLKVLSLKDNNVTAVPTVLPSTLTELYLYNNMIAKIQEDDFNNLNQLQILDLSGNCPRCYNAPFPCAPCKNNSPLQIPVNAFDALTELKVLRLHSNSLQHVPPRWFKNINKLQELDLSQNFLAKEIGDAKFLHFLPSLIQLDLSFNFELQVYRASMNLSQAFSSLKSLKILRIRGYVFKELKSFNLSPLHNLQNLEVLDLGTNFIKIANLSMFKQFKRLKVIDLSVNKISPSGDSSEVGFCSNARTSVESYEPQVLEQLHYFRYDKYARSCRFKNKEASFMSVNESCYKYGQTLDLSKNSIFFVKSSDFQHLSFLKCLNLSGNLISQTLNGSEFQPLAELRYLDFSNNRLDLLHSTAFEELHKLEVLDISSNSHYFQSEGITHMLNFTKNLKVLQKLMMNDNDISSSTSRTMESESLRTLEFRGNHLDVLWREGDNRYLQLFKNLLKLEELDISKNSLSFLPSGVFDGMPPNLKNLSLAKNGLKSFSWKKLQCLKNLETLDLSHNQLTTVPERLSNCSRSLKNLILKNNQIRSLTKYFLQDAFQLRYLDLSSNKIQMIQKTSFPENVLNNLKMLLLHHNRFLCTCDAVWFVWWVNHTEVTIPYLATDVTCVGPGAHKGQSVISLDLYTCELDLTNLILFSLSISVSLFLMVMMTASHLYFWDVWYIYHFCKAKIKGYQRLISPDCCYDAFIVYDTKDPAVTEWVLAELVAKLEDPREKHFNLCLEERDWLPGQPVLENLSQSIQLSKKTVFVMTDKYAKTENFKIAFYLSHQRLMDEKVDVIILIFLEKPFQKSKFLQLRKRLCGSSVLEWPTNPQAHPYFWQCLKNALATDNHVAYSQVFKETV
pEC50: −log10 of the molar value.
METRIC: pEC50

| MOLECULE | TARGET SYSTEM | pEC50 |
| --- | --- | --- |
| CC(O)Cn1c(CC2CC2)nc2c(N)nc3ccccc3c21 (stereo not drawn) | Toll-like receptor 7 (Homo sapiens, UniProt Q9NYK1) | 6.00 |

P = COC(=O)c1ccc2c(c1)nc(N)c1nc(CC3CC3)n(CC(C)O)c12 (stereo not drawn)
Q = CC(C)Cc1nc2c(N)nc3ccccc3c2n1Cc1ccc(CN)cc1
Data request: Which value of pEC50 is greater, the one for P or the one for Q ? Please indicate the selected item by its label.
Data returned: Q
